The following molecules are shown together with reported Percent Effect values.
experimental system: Protein translocase subunit SecA (Escherichia coli (strain K12))
assay info: Assay to Identify E. coli SecA ATPase Inhibitors
Assay type: functional
Design: scale not given: direction of the effect not stated beside the values
condition notes: 30 µM
Entries with a potency or affinity are not part of this list.

- molecule: "CN1CCN(C[C@@H]2OC[C@H]3CN(Cc4cccc(F)c4)CC[C@H]32)CC1"
  measurement kind: "Percent Effect"
  measured: "0.931%"
- molecule: "COc1ccc(CC(=O)N(C)Cc2nnc3ccccn23)cc1"
  measurement kind: "Percent Effect"
  measured: "-4.71%"
- molecule: "O=C1CCC(C(=O)NCc2nncn2-c2ccccc2)CN1 (configuration not stated)"
  measurement kind: "Percent Effect"
  measured: "-6.76%"
- molecule: "O=C(c1ccco1)N1CCC2(CCOC2)C1 (configuration not stated)"
  measurement kind: "Percent Effect"
  measured: "-0.538%"
- molecule: "Cc1ccc(C(=O)NCCCNS(C)(=O)=O)c(=O)[nH]1"
  measurement kind: "Percent Effect"
  measured: "-3.74%"
- molecule: "COc1cc(C2CC(=O)Oc3cc(C)[nH]c(=O)c32)ccc1OC(F)F (configuration not stated)"
  measurement kind: "Percent Effect"
  measured: "-2.55%"
- molecule: "CCC1CN(c2nnc(C)c(C)c2C#N)CCO1 (configuration not stated)"
  measurement kind: "Percent Effect"
  measured: "-3.31%"
- molecule: "CN(Cc1cnn(C)c1)C(=O)NCc1csc(Br)c1"
  measurement kind: "Percent Effect"
  measured: "-1.72%"
- molecule: "CC(C)OCc1ncn2c1CN(Cc1cccs1)CCC2"
  measurement kind: "Percent Effect"
  measured: "-1.74%"
- molecule: "O=C(c1ccccn1)N1C[C@@H]2CC[C@H](C1)N(C(=O)CCc1cccs1)C2"
  measurement kind: "Percent Effect"
  measured: "-6.27%"

# Percent Effect (molecule: CCc1nccn1C1CCCN(C(=O)c2cc3nc(C)ccc3o2)C1 (configuration not stated) ) is -7.55%

# Percent Effect (molecule: CC(C)c1nnc2ccc(N3CCC(C(=O)Nc4nccs4)CC3)nn12 ) is -2.74%

----------
The following compounds are shown together with reported Percent Effect values.
experimental system: Arginase-2, mitochondrial (Homo sapiens) (UniProt P78540)
Sequence (P78540 whole entry): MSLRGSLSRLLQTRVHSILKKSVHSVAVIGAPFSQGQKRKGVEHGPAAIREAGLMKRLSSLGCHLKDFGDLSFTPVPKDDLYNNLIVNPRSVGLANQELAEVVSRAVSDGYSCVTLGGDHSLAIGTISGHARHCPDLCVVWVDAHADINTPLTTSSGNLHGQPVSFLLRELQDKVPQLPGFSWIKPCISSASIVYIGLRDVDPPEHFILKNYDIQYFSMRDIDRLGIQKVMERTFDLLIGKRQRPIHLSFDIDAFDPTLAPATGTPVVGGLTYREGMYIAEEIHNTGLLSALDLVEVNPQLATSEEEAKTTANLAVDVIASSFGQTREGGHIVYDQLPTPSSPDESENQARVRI
assay info: in vitro enzyme assay to detect the production of urea directly proportional to the activity of Arginase II; note: in the data most compounds retested in dose-response had high values
Type: functional
Design: scale not given: direction of the effect not stated beside the values
condition notes: 33.3 µM
Supply the numeric figure in %, leaving out any unit text.

- compound: "O=S(=O)(Cc1ccccc1F)NCCCN1CCCCC1"
  u: "%"
  Percent Effect: -1.04
- compound: "Cc1nc(C)n(CC2CN(c3ccc(C#N)cn3)CCO2)n1 (stereo unspecified)"
  u: "%"
  Percent Effect: 1.44
- compound: "Cc1ncnc2c1CCN(Cc1cccs1)CC2"
  u: "%"
  Percent Effect: -55.7
- compound: "CC(NC(=O)NCCOc1ccc(F)c(F)c1)c1nncn1C (stereo unspecified)"
  u: "%"
  Percent Effect: 2.74

# Percent Effect (compound: Cc1ccc(C(NC(=O)CC2CCN(C(C)C)CC2)C(=O)O)cc1 (stereo unspecified) ) is 0.476

# Percent Effect (compound: COC(=O)CCC(=O)N1CCc2[nH]nc(-c3ccc4c(c3)OCO4)c2C1 ) is 11.2
